- Target or system: GluD1 (glutamate delta-1 receptor) (Rattus norvegicus)
- Construct: rat pCAGGS GluD1 plasmid expressed in COS-7 cells; with Cbln1 (recombinant, HA-tagged)
- Sequence (Q62640 21-1009): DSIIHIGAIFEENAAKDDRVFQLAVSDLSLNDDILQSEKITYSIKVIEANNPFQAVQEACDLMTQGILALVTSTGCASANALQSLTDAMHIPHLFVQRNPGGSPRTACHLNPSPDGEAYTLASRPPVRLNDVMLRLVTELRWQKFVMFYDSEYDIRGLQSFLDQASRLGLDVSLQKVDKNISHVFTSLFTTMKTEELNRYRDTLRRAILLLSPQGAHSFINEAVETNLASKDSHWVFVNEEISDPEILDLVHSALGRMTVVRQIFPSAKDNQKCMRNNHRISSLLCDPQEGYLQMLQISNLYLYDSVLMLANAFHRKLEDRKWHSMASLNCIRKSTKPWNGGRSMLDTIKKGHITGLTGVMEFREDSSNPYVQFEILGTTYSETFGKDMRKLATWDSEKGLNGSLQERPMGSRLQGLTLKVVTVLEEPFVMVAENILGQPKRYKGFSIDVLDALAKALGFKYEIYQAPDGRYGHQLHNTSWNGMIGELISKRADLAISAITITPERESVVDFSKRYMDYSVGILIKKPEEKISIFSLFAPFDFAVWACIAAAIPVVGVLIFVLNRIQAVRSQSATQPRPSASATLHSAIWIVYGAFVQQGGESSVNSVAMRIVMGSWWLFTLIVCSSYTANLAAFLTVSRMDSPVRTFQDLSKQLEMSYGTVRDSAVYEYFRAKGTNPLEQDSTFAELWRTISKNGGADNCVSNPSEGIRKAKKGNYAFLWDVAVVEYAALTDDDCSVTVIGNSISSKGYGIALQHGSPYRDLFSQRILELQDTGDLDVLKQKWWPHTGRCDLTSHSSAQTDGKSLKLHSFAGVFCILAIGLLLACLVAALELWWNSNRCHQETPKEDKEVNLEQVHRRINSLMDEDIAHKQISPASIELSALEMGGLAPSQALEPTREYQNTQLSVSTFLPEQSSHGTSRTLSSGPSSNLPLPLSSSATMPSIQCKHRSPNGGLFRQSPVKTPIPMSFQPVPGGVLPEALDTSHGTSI
- Sequence (P63182 22-193 partner): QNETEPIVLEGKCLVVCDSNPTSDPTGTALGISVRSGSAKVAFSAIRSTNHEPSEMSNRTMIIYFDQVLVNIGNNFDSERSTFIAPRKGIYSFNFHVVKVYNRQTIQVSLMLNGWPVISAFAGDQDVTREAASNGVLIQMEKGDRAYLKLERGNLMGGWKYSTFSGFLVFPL
- Experimental details: cell-binding assay: inhibition of rCbln1 binding to GluD1-expressing COS-7 cells; effect lost in R526K mutant; immunoblot confirmation in HEK293T
Readout type: IC50 (µM)

input_smiles=N[C@H](CO)C(=O)O target_or_system="GluD1 (glutamate delta-1 receptor) (Rattus norvegicus)" readout_value=310
